Cited source for all entries: ChEMBL document CHEMBL3603817

# test-protocol: Lipophilicity, log P of the compound
# Format: physicochemical
# measurement-conditions: octanol/water
Would you please tag the item yes when its logP is 4 or above, and no when it is below?

| compound | group |
| --- | --- |
| Nc1ccccc1NC(=O)c1ccc(CSC2=N[C@@H](c3cccnc3)CO2)cc1 | no |
| Nc1ccccc1NC(=O)c1ccc(CNC2=N[C@H](Cc3c[nH]cn3)CO2)cc1 | no |
| Nc1ccccc1NC(=O)c1ccc(CNC2=NC[C@@H](c3ccccc3)O2)cc1 | no |
| Nc1ccccc1NC(=O)c1ccc(CNc2nccc(-c3cccnc3)n2)cc1 | no |
| Nc1ccccc1NC(=O)c1ccc(CNC2=N[C@@H](Cc3c[nH]cn3)CO2)cc1 | no |
| Nc1ccccc1NC(=O)c1ccc(CNC2=N[C@@H](c3cccnc3)CO2)cc1 | no |
| Nc1ccccc1NC(=O)c1ccc(CNC2=NC[C@H](c3ccccc3)O2)cc1 | no |
| Nc1ccccc1NC(=O)c1ccc(CNC2=N[C@@H](c3ccccc3)[C@H](c3ccccc3)O2)cc1 | yes |
| Nc1ccccc1NC(=O)c1ccc(CNC2=N[C@@H](Cc3ccccc3)CO2)cc1 | yes |
| Nc1ccccc1NC(=O)c1ccc(CNC2=NC(c3ccc(C(F)(F)F)cc3)CO2)cc1 (stereo not given) | yes |
| Nc1ccccc1NC(=O)c1ccc(CNC2=N[C@H](c3ccccc3)[C@H](c3ccccc3)O2)cc1 | yes |
| Nc1ccccc1NC(=O)c1ccc(CNC2=N[C@H](c3ccccc3)CO2)cc1 | no |
| Nc1ccccc1NC(=O)c1ccc(CNC2=N[C@@H](c3ccc(O)cc3)CO2)cc1 | no |
| Nc1ccccc1NC(=O)c1ccc(CNC2=NC(c3cccc(F)c3)CO2)cc1 (stereo not given) | no |
| Nc1ccccc1NC(=O)c1ccc(CSC2=N[C@@H](Cc3ccccc3)CO2)cc1 | yes |
| Nc1ccccc1NC(=O)c1ccc(CNC2=N[C@@H](c3ccccc3)CN2)cc1 | no |
| Nc1ccccc1NC(=O)c1ccc(CNC2=NC(c3ccccc3)(c3ccccc3)CO2)cc1 | yes |
| Nc1ccccc1NC(=O)c1ccc(CNC2=N[C@@H](c3ccccc3)CO2)cc1 | no |
| Nc1ccccc1NC(=O)c1ccc(CSC2=N[C@@H](c3ccccc3)CN2)cc1 | yes |
